Items are presented alongside their recorded melting point.

Some solved entries appear below for comparison.
INSERT INTO results (test_smiles, reported) VALUES
  ('Cc1nc(Nc2ccc(Br)cc2)sc1C(=O)NC12CC3CC(CC(C3)C1)C2', '277 to 280 °C'),
  ('Cc1nc(Nc2ccc(NS(C)(=O)=O)c(Oc3ccccc3)c2)sc1C(=O)NC12CC3CC(CC(C3)C1)C2', '156 to 160 °C'),
  ('Cc1nc(N)sc1C(=O)NC12CC3CC(CC(C3)C1)C2', '256 to 257 °C'),
  ('Cc1nc(Nc2ccc([N+](=O)[O-])cc2)sc1C(=O)NC12CC3CC(CC(C3)C1)C2', '300 to 303 °C'),
  ('Cc1nc(Nc2ccccc2Cl)sc1C(=O)NC12CC3CC(CC(C3)C1)C2', '202 to 203 °C'),
  ('Cc1nc(Nc2cccc(Cl)c2)sc1C(=O)NC12CC3CC(CC(C3)C1)C2', '253 to 254 °C'),
  ('Cc1nc(Nc2cccc(F)c2)sc1C(=O)NC12CC3CC(CC(C3)C1)C2', '220 to 225 °C'),
  ('COc1ccc(Nc2nc(C)c(C(=O)NC34CC5CC(CC(C5)C3)C4)s2)cc1', '226 to 229 °C'),
  ('Cc1nc(NC23CC4CC(CC(C4)C2)C3)sc1C(=O)NC12CC3CC(CC(C3)C1)C2', '250 to 253 °C');

// query Query melting point for `COc1ccccc1Nc1nc(C)c(C(=O)NC23CC4CC(CC(C4)C2)C3)s1`
// result 210 to 212 °C
